# Tested on: Leishmania donovani
# test_protocol: Antileishmanial activity against axenic amastigotes of Leishmania donovani MHOM/SD/1962/1S-Cl2d infected in human THP1 cells assessed as parasite growth inhibition at 50 uM after 24 hrs by AlamarBlue viability assay
# Format: functional
# details: read-out: GI
Attribute: inhibition of growth at 50 µM
Provide only the numeric value, understood in %.

As a guide, the following entries are already answered.
1) CC(C)c1ccc2c(c1)CC[C@H]1[C@](C)(CNC(=O)CCC(=O)O)CCC[C@]21C = 98.1
2) CC(C)c1ccc2c(c1)CC[C@H]1[C@](C)(CNC(=O)c3ccccc3C(=O)O)CCC[C@]21C = 98.5
3) CC(C)c1ccc2c(c1)CC[C@H]1[C@](C)(CNC(=O)/C=C/c3ccc([N+](=O)[O-])cc3)CCC[C@]21C = 42.7
4) C=CC(=O)NC[C@]1(C)CCC[C@]2(C)c3ccc(C(C)C)cc3CC[C@@H]12 = 99.8
5) CC(C)c1ccc2c(c1)CC[C@H]1[C@](C)(CNC(=O)c3nccnc3C(=O)O)CCC[C@]21C = 9.4

What reported inhibition of growth at 50 µM corresponds to CCCC(=O)NC[C@]1(C)CCC[C@]2(C)c3ccc(C(C)C)cc3CC[C@@H]12 on Leishmania donovani?
96.6

Test system Leishmania donovani; read-out inhibition of growth at 50 µM; what value for CC(C)c1ccc2c(c1)CC[C@H]1[C@](C)(CNC(=O)c3ccc[nH]3)CCC[C@]21C ?
99.1

Under Leishmania donovani: inhibition of growth at 50 µM value of CC(C)c1ccc2c(c1)CC[C@H]1[C@](C)(CNC(=O)c3ccccc3)CCC[C@]21C ?
95.7
